The reader will find reported CD112 blocking max inhibition ELISA (%) values listed item by item below.
Molecular target: T1, CD112R-hIgG4 fusion protein (human, UniProt Q6DKI7 41-171, limits assumed)
T1 construct: also called human CD112R-hIgG4; not shown: human IgG4 portion (hIgG4)
T1 sequence (looked up): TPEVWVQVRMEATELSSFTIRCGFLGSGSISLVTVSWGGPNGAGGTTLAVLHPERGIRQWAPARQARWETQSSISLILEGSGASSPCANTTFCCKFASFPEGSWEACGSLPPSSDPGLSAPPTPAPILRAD
Assay: blocking ELISA: coated CD112R-hIgG4, antibody, then biotinylated CD112 Fc

{"Binder": "Antibody 33 (antibody, V domains shown, Purified as IgG; compared with an IgG1 isotype control and detected with anti-human IgG Fc; also called antibody clone number 33; clone 33) VH: QVQLVQSGAEVKKPGSSVKVSCKASGGTFGNYAISWVRQAPGQGLEWMGGIIPIPGIANYAQKFQGRVTITADESTSTAYMELSSLRSEDTAVYYCARDTGRGYTRHFWFDPWGQGTLVTVSS VL: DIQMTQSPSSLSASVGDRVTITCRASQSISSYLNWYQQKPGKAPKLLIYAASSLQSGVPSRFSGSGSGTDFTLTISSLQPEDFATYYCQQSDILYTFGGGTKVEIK", "CD112 blocking max inhibition ELISA (%)": 78.8}
{"Binder": "Antibody 2 (antibody, V domains shown, Purified as IgG; compared with an IgG1 isotype control and detected with anti-human IgG Fc; also called antibody clone number 2; clone 2) VH: EVQLVESGGGLVKPGGSLRLSCAASGFTFSEYTMNWVRQAPGKGLEWVSAIVGSGDSTYYADSVKGRFTISRDNSKNTLYLQMNSLRAEDTAVYYCAKDYSSGDWIDYGMDVWGQGTTVTVSS VL: DIQMTQSPSSLSASVGDRVTITCQASQDISNYLNWYQQKPGKAPKLLIYDASNLATGVPSRFSGSGSGTDFTFTISSLQPEDIATYYCQQFDLLPPTFGGGTKVEIK", "CD112 blocking max inhibition ELISA (%)": 97}
{"Binder": "Antibody 38 (antibody, V domains shown, Purified as IgG; compared with an IgG1 isotype control and detected with anti-human IgG Fc; also called antibody clone number 38; clone 38) VH: EVQLLESGGGLVQPGGSLRLSCAASGFTFSGHLMSWVRQAPGKGLEWVSAISGSAGETYYADSVKGRFTISRDNSKNTLYLQMNSLRAEDTAVYYCARDAYYDDWSGWADWYFDLWGRGTLVTVSS VL: EIVLTQSPATLSLSPGERATLSCRASQSVSRYLAWYQQKPGQAPRLLIYDASNRATGIPARFSGSGSGTDFTLTISSLEPEDFAVYYCQQVSLLPPTFGGGTKVEIK", "CD112 blocking max inhibition ELISA (%)": 97.2}
